system: HT-1080; assay: Antiproliferative activity against human HT1080 cells after 72 hrs by CCK8 assay; type: functional, cell-based; conditions: HT-1080, 72 h
Assay Readout: IC50 (µM)

**Q:** Item under review: Nc1cc(C(F)(F)F)c(-c2nc(N3CCOCC3)nc(N3C[C@H]4OCCO[C@@H]4C3)n2)cn1 (racemic) . Reported IC50?
**A:** 10

**Q:** Item under review: Nc1cc(C(F)(F)F)c(-c2cc(N3C[C@H]4OCCO[C@@H]4C3)nc(N3CCOCC3)n2)cn1 (racemic) . Reported IC50?
**A:** 5.64

P = CC(/C=C/C(=O)NO)=C\[C@@H](C)C(=O)c1ccc(N(C)C)cc1
Q = C[C@@H]1CN(c2nc(-c3cnc(N)cc3C(F)(F)F)cc(N3CCOCC3)n2)C[C@H](C)O1
**Q:** Please indicate which item has the smaller measured IC50: P versus Q Lab log: write the label of the selected item as the result.
**A:** P
(P: 0.08 µM, Q: 1.98 µM)
